Test system: HNSC
experiment_summary: growth inhibition (% activity, log2 RLU normalised to DMSO / staurosporine); higher = more growth inhibition
conditions: 33 µM
// reported growth inhibition per item
value_kind: growth inhibition (%)

compound=CC(=O)Nc1ccccc1 readout_number=-3.95
compound=C[C@H]1[C@H](NC(=O)/C(=N\OC(C)(C)C(=O)O)c2csc(N)n2)C(=O)N1S(=O)(=O)O readout_number=1.91
compound="CC(CCc1ccc(O)cc1)NCC(O)c1ccc(O)cc1 (configuration not stated)" readout_number=5.04
compound=NNC(=O)c1ccncc1.Nc1ccc(C(=O)O)c(O)c1 readout_number=-0.818
compound=O=C(O)c1cccnc1 readout_number=-0.701
compound="Cc1ccccc1C(=O)Nc1ccc(C(=O)N2CCCC(O)c3cc(Cl)ccc32)c(C)c1 (configuration not stated)" readout_number=3.21
compound=CCC(CC)[C@H](NC(C)=O)[C@@H]1[C@H](O)[C@@H](C(=O)O)C[C@H]1NC(=N)N readout_number=-1.8
compound=N[C@@H](Cc1cc(I)c(Oc2ccc(O)c(I)c2)c(I)c1)C(=O)O readout_number=13.2
compound=C[C@@H]1C/C=C/C=C/C=C/C=C/[C@H](O[C@@H]2O[C@H](C)[C@@H](O)[C@H](N)[C@@H]2O)C[C@@H]2O[C@](O)(C[C@@H](O)C[C@H]3O[C@@H]3/C=C/C(=O)O1)C[C@H](O)[C@H]2C(=O)O readout_number=-0.468
compound=CCN(CCCc1ccccc1)CCCc1ccccc1 readout_number=4.87
compound=CNC[C@H](O)c1cccc(O)c1 readout_number=3.62
compound="NS(=O)(=O)c1cc2c(cc1C(F)(F)F)NC(Cc1ccccc1)NS2(=O)=O (configuration not stated)" readout_number=-0.523
